# TARGET OF ASSAY: T1, Ara h 2 (peanut, UniProt Q6PSU2 22-172)
# T1 construct: also called full length Ara h 2
# T1 sequence (looked up): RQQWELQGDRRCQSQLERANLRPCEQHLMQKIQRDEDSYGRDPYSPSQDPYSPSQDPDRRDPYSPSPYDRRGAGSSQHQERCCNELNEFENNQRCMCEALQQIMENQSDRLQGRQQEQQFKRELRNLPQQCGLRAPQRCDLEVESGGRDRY
# EXPERIMENT NOTES: competition ELISA on coated Ara h 2; competitor: Patient A serum IgE
# Description: Microplates were coated with […] of Ara h 1, Ara h 2, Ara h 3, or Ara h 6, overnight at 4° C. […] IgE levels were detected using anti-human HRP-conjugated Fc-epsilon-specific secondary antibody (Abcam, Cambridge, UK) followed by addition of TMB solution (TMB, Sigma, Buchs, Switzerland). Binding of murine antibodies was detected using goat anti-mouse IgG (H+L)-HRP (Jackson ImmunoResearch, West Grove, Pa., USA).
READOUT TYPE: % inhibition of IgE binding (%)
Express it in %; write the number only.

Which measured % inhibition of IgE binding value corresponds to h32B10 (antibody, V domains shown, Recombinant human IgG; also called hMAb 32B10) VH: QVQLVQSGAEVKKPGASVKVSCRASGYIFRNFDINWVRQATGQGLEWMGWMSPKSGDTGYAQKFQGRVTMTRDTSINTAYMELSSLTSEDSAVYYCARGVDGTNWGQGTRVTVSS VL: DIVMTQSPDSLGVSLGERATISCKSSQSILDNSNNKNFIAWFQQKPGQPPKLLIYWASARESGVPDRFSGSGSGTEFTLTINSLQAEDVAVYYCYQYYSTPHTFGQGTKLDLR ? 27.8
